Assay: probe aNog binding to arrayed compounds – biochemical, biotinylated probe, 635/667 nm fluorescence, primary screen (AID 1115);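 also: probe is biotinylated aNog protein used at 0.15 µg/mL for 1 h at 4 C; z-score combines 667 nm fluorescence of each spot with its signal to noise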
Conditions: small-molecule microarray, higher = more signal
Entry class follows composite z-score: group A = under -0.2, group B = from -0.2 up to 0.1, group C = 0.1 and over

# example entries with known answers
{"columns": ["compound", "category.label"],
 "data": [
  ["CC(c1ccccc1)C(O)C1C=CC2C(=O)N(c3ccccc3)C(=O)C2N1Nc1ccccc1 (stereo not given)", "group C"],
  ["COC(=O)[C@@]1(Cc2ccccc2)[C@H]2c3cc(C(=O)N(C)C)n(Cc4ccc(OC)c(OC)c4)c3C[C@H]2CN1C(=O)c1ccccc1", "group C"],
  ["C[N+](C)(C)CCCC[C@@H]1NC(=O)[C@H]2C[C@@H](C(=O)NCCCCCCNC(=O)CS)[C@@H](c3ccc(O)cc3)N2C1=O", "group B"],
  ["CCOc1ccc(N2C(=O)CSC2c2cccc([N+](=O)[O-])c2)cc1 (stereo not given)", "group B"],
  ["CN(C)CCCC[C@@H]1NC(=O)[C@H]2C[C@@H](C(=O)NCCCCCN)[C@@H](c3cccc(OCCO)c3)N2C1=O", "group C"],
  ["[N-]=[N+]=NCc1ccccc1[C@@H]1OC(c2ccc(OCCCO)cc2)=N[C@]1(CCS(=O)(=O)c1ccccc1)C(N)=O", "group C"]
]}

Problem: Kindly identify the class of CC(C)OC(=O)C=C1C[C@@H](c2cccc(Cl)c2)O[C@@H](c2cccc(Cl)c2)O1 .
Result: group A

Problem: Kindly identify the class of CCCNC(=O)[C@@]1(Sc2ccc(C)cc2)CC(=O)N(Cc2ccccc2C(F)(F)F)[C@@H]1c1ccc(CO)cc1I .
Result: group C

Problem: Kindly identify the class of O=C1C2C=CC(C(O)c3cc(C(F)(F)F)cc(C(F)(F)F)c3)N(Nc3ccccc3)C2C(=O)N1c1ccccc1 (stereo not given) .
Result: group C

Problem: Kindly identify the class of [N-]=[N+]=Nc1ccccc1C[C@]1(C(=O)NCc2ccccc2)N=C(c2ccc(OCCCO)cc2)O[C@H]1c1ccccc1N=[N+]=[N-] .
Result: group A

Problem: Kindly identify the class of OCC1C=C(/C=C/c2ccccc2)CN1Cc1ccccc1Br (stereo not given) .
Result: group A

Problem: Kindly identify the class of O=C1[C@H]2C=C(I)[C@H](C[C@@H]2OCCCCO)[C@@]12CO2 .
Result: group C

Problem: Kindly identify the class of CN(C)CCCCCCNC(=O)[C@@H]1C[C@@H]2C(=O)N[C@@H](CCCC[N+](C)(C)C)C(=O)N2[C@@H]1c1ccc(O)cc1 .
Result: group A

* * *

Tested on: glycogen synthase kinase-3 (GSK3A per assay name; protocol says GSK3B)
Test: compounds binding glycogen synthase kinase-3 – biochemical, small-molecule microarray, 635 nm fluorescence, GSK3A, primary screen (AID 1103); also: the record names both GSK3A and GSK3B
Conditions: fluorescence 635 nm, higher = more signal
value.kind: composite z-score

{"columns": ["compound", "composite z-score"],
 "data": [
  ["CC(C)(C)OC(=O)CC[C@]1(C(=O)NCCN2CCOCC2)COC(c2ccc(OCCCO)cc2)=N1", 0.743]
]}

// each listed compound needs a value for composite z-score
1. CC(C)Cc1ccc(CN2CC[C@@H](N)C2)cc1
2. O=C1C2C=CC(C(O)c3c(F)cccc3Cl)N(Nc3ccccc3F)C2C(=O)N1c1ccccc1 (stereo unspecified)
3. C[N+](C)(C)CCCC[C@@H]1NC(=O)[C@@H]2C[C@H](C(=O)NCCCCCCNC(=O)CS)[C@H](c3ccc(O)cc3)N2C1=O
4. CO[C@H]1O[C@H](CO)[C@@H](OC(=O)Nc2ccccc2)[C@@H]2OC(=O)[C@@H](Cc3ccc4ccccc4c3)C/C=C/C[C@H](Cc3ccc4ccccc4c3)C(=O)O[C@@H]12

Result:
-0.727
0.533
-1.28
0.899
